In this section, each of the binders is paired with its reported percentage of cells with FITC signal.
biological target: T1, human 4-1BB (h4-1BB) on transiently transfected CHO cells (human, UniProt Q07011 24-255); assay: flow cytometry, CHO cells transfected with human 4-1BB, antibody at 1 µg/ml
T1 construct: also called TNFRSF9; CD137

{"columns": ["binder", "readout-units", "percentage of cells with FITC signal"],
 "data": [
  ["56-2A6 (antibody, V domains shown, mouse antibody purified from ascites) VH: QIQLVQSGPELKKPGETVKISCKASGYTFTNYGMNWVKQAPGKGFKWMGWINTYTGEPTYADDFKGRFAFSLEISASTAYLQINNLKNEDTATYFCARRDYLGAMDYWGQGTSVTVSS VL: ENVLTQSPAIMSASPGEKVTMTCRASSSVSSSYLHWYQQKSGASPKLWIYSTSNLASGVPARFSGSGSGTSYSLTISSVEAEDAATYYCQQYSAYLYTFGGGTKLEIK", "%", 40.9],
  ["45-4B9 (antibody, V domains shown, mouse antibody purified from ascites) VH: EVQLQQSGPELVKPGASVKMSCKASGYTFTTYVMYWVKQRPGQGLEWIGYINPYNDDIRYNEKFKGKATLTSDRSSSTAYMELSSLTSEDSAVYLCARQGGDYWGQGTILTVSS VL: DVQITQSPSYLAASPGETITVNCRASKNINKYLAWYQEKPGKTNKLLIYSGSTLQSGIPSRFSGSGSGTDFTLTISSLEPEDFAVYHCQQYNEYPLTFGAGTKLEMK", "%", 49.3],
  ["55-8F6 (antibody, V domains shown, mouse antibody purified from ascites) VH: QVQLQQPGAELVRPGASVKLSCKASGYIFTSYWINWVKQRPGQGLEWIGNIYPSDSYTNYNQKFKDKATLTVDKSSSTAYMQLSSPTSEDSAVYYCTRFHYGSSPFDNWGQGTTLTVSS VL: DIQMTQSTSSLSASLGDRVTISCRASQDISHYLNWYQQKPDGTVKLLIYYTSRLHSGVPSRFSGSGSGTDYSLTISNLEQEDFATYFCQQGHTLPRTFGGGTKLEIK", "%", 52.3],
  ["61-6A7 (antibody, V domains shown, mouse antibody purified from ascites) VH: EVQLQQSGAELVRPGALVKLSCKASGFNIKDYYMHWVKRRPEQGLEWIGWIDPENGNTIYDPKFQDKASITADTSSNTAYLQLSSLTSEDTAVYYCAEGLPWYFDYWGQGTTLTVSS VL: QIILTQSPALMSASPGEKVTMTCSASSSVSDMNWYQQKPRSSPTPWIYLTSNLSSGVPDRFSGSGSGTSYSLTISSMEAEDAATYYCQQWSGNPLTFGAGTRLELK", "%", 60.1],
  ["29-6A5 (antibody, V domains shown, mouse antibody purified from ascites) VH: QVQLQQPGAELVRPGASVKLSCKASGYTFSSYWINWVKQRPGQGLEWIGNIYPSDSYTNYNQKFKDKATLTVDKSSSTAYMQLSSPTSDDSAVYYCTRTWEFYYDSVFDYWGQGTTLTVSS VL: DIKMTQSPSSMYASLGERVTITCKASQDINSYLSWFQQKPGKSPKTLIYRANRLVDGVPSRFSGSGSGQDYSLTISSLEYEDMGIYYCLQYDELPPTFGGGTKLEIK", "%", 73.4]
]}
